Hey, just so you know, these numbers are from ChEMBL document CHEMBL5154772.

Assay: Metabolic stability in human liver microsomes assessed as parent compound remaining incubated for 45 mins in presence of NADPH by HPLC-MS/MS analysis
Assay type: ADME, Microsome
Details: read-out: Stability
parameter: remaining at 0.75 h

# query: remaining at 0.75 h of entry COc1ccc(-c2cc(=O)c3c(O)cc(OP(=O)([O-])[O-])c(-c4cc(-c5cc(=O)c6c(O)cc(OP(=O)([O-])[O-])cc6o5)ccc4OC)c3o2)cc1.[Na+].[Na+].[Na+].[Na+]
60.8%

====

Experiment: Tmax in C57BL/6J mouse at 9.103 mg/kg, ip administered as single dose measured up to 24 hrs
Assay type: ADME, organism-based
Conditions: in vivo
parameter: Tmax (min)
Numeric answer only, unit min assumed.

Recorded Tmax for COc1ccc(-c2cc(=O)c3c(O)cc(OP(=O)([O-])[O-])c(-c4cc(-c5cc(=O)c6c(O)cc(OP(=O)([O-])[O-])cc6o5)ccc4OC)c3o2)cc1.[Na+].[Na+].[Na+].[Na+] , please?
5

====

Experiment: Total clearance in C57BL/6J mouse at 0.711 mg/kg, iv administered as single dose measured up to 24 hrs
Format: ADME, organism-based
Settings: in vivo
parameter: clearance (mL/min/kg)
Please state the figure in mL/min/kg; there is no need to write the unit.

# query: clearance of entry COc1ccc(-c2cc(=O)c3c(O)cc(OP(=O)([O-])[O-])c(-c4cc(-c5cc(=O)c6c(O)cc(OP(=O)([O-])[O-])cc6o5)ccc4OC)c3o2)cc1.[Na+].[Na+].[Na+].[Na+]
133

====

Experiment: Tmax in C57BL/6J mouse at 0.711 mg/kg, iv administered as single dose measured up to 24 hrs
Format: ADME, organism-based
Conditions: in vivo
parameter: Tmax (min)
Numbers only here, please. The scale is min.

# Tmax lookup, item COc1ccc(-c2cc(=O)c3c(O)cc(OP(=O)([O-])[O-])c(-c4cc(-c5cc(=O)c6c(O)cc(OP(=O)([O-])[O-])cc6o5)ccc4OC)c3o2)cc1.[Na+].[Na+].[Na+].[Na+]
5
